Cited source: ChEMBL document CHEMBL5724801

Quick reference for Population Normal (%) among some compounds
# Test system: U2OS
# method.summary: Multiplex assay against U2OS
# Format: toxicity, cell-based
# condition: human, 48 h, 1 µM, compound concentration 1 uM
endpoint.label: Population Normal (%)

> print(dat)
                                    compound         endpoint.label  readout.unit  value.reported
 1  CC/C(=C(\c1ccc(O)cc1)c1ccc(OCCN(C)C)cc1)c1ccccc1  Population Normal (%)             %             100
 2  C[C@@H]1CC(=O)Nc2cccc(-c3ccc4c(c3)c(-c3cnn(C)c3)nn4C)c2N1  Population Normal (%)             %              98
 3  O=S(=O)(c1ccccc1)c1cnc2c(N3CCNCC3)cccc2c1 [INTEPIRDINE]  Population Normal (%)             %              96
 4    O=C1NCc2ccc3c(-c4cccc(Cl)c4)c[nH]c3c21  Population Normal (%)             %             100
 5      COc1ccc2nc3ccc(OC)cc3c(SCCCN)c2c1.Cl  Population Normal (%)             %             100
 6  CCN1CCN(Cc2ccc(Nc3ncc(F)c(-c4cc(F)c5nc(C)n(C(C)C)c5c4)n3)nc2)CC1.CS(=O)(=O)O  Population Normal (%)             %             100
 7  CN[C@@H](C)C(=O)N[C@H](C(=O)N1CCC[C@H]1C(=O)Nc1snnc1-c1ccccc1)C1CCCCC1  Population Normal (%)             %              91
 8  COc1cc2ncnc(Nc3ccc(Oc4ccccc4)cc3C)c2cc1OC.Cl  Population Normal (%)             %             100
 9  Cl.Cl.N#Cc1ccc(O[C@@H]2c3ccccc3C[C@H]2N2CCC[C@@H](N)C2)c(Cl)c1  Population Normal (%)             %             100
10                  c1ccc2nc(N3CCNCC3)ccc2c1  Population Normal (%)             %             100
11  COCCn1c(C)c(C)s/c1=N\C(=O)C1C(C)(C)C1(C)C  Population Normal (%)             %              98
12  CN(C)CCCc1cc(C(=O)Nc2ccc(-c3ccncc3)cc2)ccc1O.Cl.Cl  Population Normal (%)             %              96
13  CCc1nn2c(C)cc(C)nc2c1Cc1ccc(-c2nnc(C3CCNCC3)o2)cc1  Population Normal (%)             %              97
14  Cl.NCCc1ccc(O)c(O)c1 [DOPAMINE HYDROCHLORIDE]  Population Normal (%)             %              97
15    N#Cc1cc(F)cc(-c2nc(-c3ccc(F)cn3)no2)c1  Population Normal (%)             %              98
16   CNC[C@H](O)c1ccc(O)c(O)c1 [EPINEPHRINE]  Population Normal (%)             %              99
17  CC[C@H](Nc1ncnc2[nH]cnc12)c1nc2cccc(F)c2c(=O)n1-c1ccccc1  Population Normal (%)             %             100
18  C=C(C)[C@H]1CN[C@H](C(=O)O)[C@H]1CC(=O)O  Population Normal (%)             %             100
19  COc1cc(C(=O)N2CC[C@@H](O)[C@@H](N)C2)cc2nc(-c3cc4ccccc4n3CC3CC3)n(C)c12.Cl  Population Normal (%)             %              97
